All figures here come from ChEMBL document CHEMBL4513216.

Tested on: Plasmodium berghei
PROTOCOL_DESCRIPTION: Screen against P. berghei liver stage (PbLuc), transformed with Luciferase, at 10uM
Type: functional, HepG2
CONDITION: tested at 10 uM
The campaign covered roughly 69,000 compounds. About 8,600 (12%) showed an effect of 50% or more. The full list was thinned out, with strong results kept by preference.
REPORTED_PROPERTY: INHIBITION (%)
Express the result in % but write the number alone.

[in] Check the records and state INHIBITION for CCc1cc(N(C)Cc2cc[nH]n2)n2nc(C)c(C)c2n1
[out] 81.7

[in] Tell me INHIBITION reported for CC(C)c1cc(C(=O)NCCc2nc(-c3cccnc3)n[nH]2)[nH]n1
[out] 12.365

[in] For CC(C)C1CN(S(C)(=O)=O)CCCN1Cc1ccc(F)cc1 (stereo not drawn) , write its INHIBITION.
[out] 24.3

[in] Provide measured INHIBITION value, entry: CC(=O)Nc1ccc(-n2cncn2)c(F)c1
[out] -6.91

[in] Let me know recorded INHIBITION for CC[C@@H]1N(CC2CCC2)CCC[C@]12CCC(=O)N2Cc1ccncc1 , thanks.
[out] -8.51

[in] For the compound O=C(CNC1CCc2ncnn2C1)NCCc1cccs1 (stereo not drawn) , give its measured INHIBITION value.
[out] 12.3

[in] Answer with reported INHIBITION of CN(C)C(=O)N1CCN(Cc2cnn(C)c2)CC2(CNC(=O)C2)C1 (stereo not drawn)
[out] 17.6

[in] Determine from records and report INHIBITION for COCCNC(=O)Nc1ccc(-n2cncn2)c(F)c1
[out] 58.2

[in] Please look at this compound and report its INHIBITION: Clc1ccc(-n2cc(CNC3CCc4ncnn4C3)cn2)cc1 (stereo not drawn)
[out] 51.3

[in] Retrieve INHIBITION measured for CCOc1ccc(CN2CC[C@@H]3CC[C@H](C2)N3)cc1CO and print it.
[out] 31.2

[in] Please list INHIBITION recorded for the compound CN(C)CCCNC(=O)C1CC(=O)N(c2n[nH]c3cccc(F)c23)C1 (stereo not drawn)
[out] 14.6

[in] Look up and report measured INHIBITION for this entry: c1ccc(-n2cc(CNC3CCc4ncnn4C3)cn2)cc1 (stereo not drawn)
[out] 11.6

[in] Return INHIBITION for the following compound: Clc1ccc2c(c1)C=C(CNC1CCc3ncnn3C1)CO2 (stereo not drawn)
[out] 51.8

[in] For the compound c1ccc(CN2CCc3ncnc(C4CC4)c3CC2)cc1 , report INHIBITION.
[out] 0.164

[in] Specify measured INHIBITION for CC(C)COc1cncc(NC(CO)c2ccco2)n1 (stereo not drawn) .
[out] 45.6

[in] Give me measured INHIBITION, please, for this compound: COCCNC(=O)Nc1ccc(-n2cncn2)c(C(F)(F)F)c1
[out] 21.8

[in] Identify measured INHIBITION corresponding to CCc1cc(N(C)Cc2ccncn2)n2nc(C)c(C)c2n1
[out] 42.3

[in] Tell me measured INHIBITION for Cc1ccc(NC2CCN(C(=O)CCc3nccs3)CC2)nn1 please.
[out] -48.4

[in] Respond only with INHIBITION recorded for CCc1nnc(CN(C)c2cc(C)nc3c(C)c(C)nn23)o1
[out] 36.7

[in] Entry CC(C)C1CN(c2cccc(C#N)n2)CCCN1CC1CC1 (stereo not drawn) needs its INHIBITION filled in; supply it.
[out] 33.9

[in] # return recorded INHIBITION for entry Cn1cnc2c1C(C(=O)N1CCCO1)N(C(=O)c1ccccc1)CC2 (stereo not drawn)
[out] 70.4

[in] Input O=S(=O)(NCc1ccc(S(=O)(=O)N2CCCC2)s1)c1cc(Cl)ccc1Cl , output reported INHIBITION.
[out] 3.48

[in] Fill in reported INHIBITION for this entry: Cn1c(Cn2ccnc2)nnc1C1CCN(C(=O)c2ccncc2)CC1
[out] -22.1

[in] Give the measured INHIBITION for c1csc(CN2Cc3nccn3CC(Cn3cncn3)C2)n1 (stereo not drawn)
[out] 28.5

[in] Note down INHIBITION recorded for CC(C)COc1cncc(NCC(O)c2ccco2)n1 (stereo not drawn)
[out] 20.8

[in] Note INHIBITION for the compound shown: CC(C)C1CN(S(=O)(=O)N2CCCC2)CCCN1Cc1ccc(F)cc1 (stereo not drawn)
[out] 65.3

[in] Determine from records and report INHIBITION for Cc1occc(=O)c1OCc1noc(C(=O)NC2CCCC2)n1
[out] 6.67

[in] Give the measured INHIBITION for CC(C)C1CN(S(=O)(=O)C2CC2)CCCN1Cc1ccc(F)cc1 (stereo not drawn)
[out] 45.6

[in] Please look at this compound and report its INHIBITION: Cc1cc(N(C)Cc2cc(C)on2)n2nc(C)c(C)c2n1
[out] -45.4

[in] Identify measured INHIBITION associated with COc1ccc(OCCNCc2c(C)nn(C)c2N(C)C)cc1
[out] -7.1

[in] // fetch INHIBITION given entry CC(C)COc1cncc(NCCc2nnc3ccccn23)n1
[out] 55.4

[in] Report INHIBITION, nothing else, for this compound: CCOC(=O)N1CCC(Nc2cc(CC)nc3c(C)c(C)nn23)CC1
[out] -31.4

[in] Identify the reported INHIBITION for the following entry. Cc1noc([C@H]2CC[C@@H]3[C@@H](CCN3S(=O)(=O)C3CC3)O2)n1
[out] -6.23

[in] Give recorded INHIBITION. Clc1cccc(-c2nc(CNC3CCc4ncnn4C3)co2)c1 (stereo not drawn)
[out] 49.8

[in] Dear colleague, please send me the reported INHIBITION for O=C(O)c1cc2c(nc1-c1ccsc1)CCN(C(=O)C1CC1)CC2 when you can.
[out] 40.8

[in] Give the measured INHIBITION for CCc1cc(N(C)Cc2ccno2)n2nc(C)c(C)c2n1
[out] -2.73

[in] Answer with the recorded INHIBITION of O=C1CC2(CNCCN(C(=O)Nc3ccccc3)C2)CN1 (stereo not drawn) only.
[out] 16.1

[in] Note INHIBITION for the compound shown: COCCN1CCCC(Cc2cnc(-c3c(C)nn(C)c3C)cn2)C1 (stereo not drawn)
[out] -29.9

[in] // Input: CC(=O)N1CCc2ncn(C)c2C1C(=O)N1CCCC1 (stereo not drawn) . Output its INHIBITION only.
[out] 45.8

[in] Note INHIBITION for the compound shown: CCCOc1ccc2c(c1)OCC(CNC1CCc3ncnn3C1)=C2 (stereo not drawn)
[out] 42.1

[in] Item Cn1cc(Br)c(=O)c(NS(=O)(=O)c2ccc(Cl)cc2)c1 : provide INHIBITION
[out] -4.68

[in] Item O=C(CNC1CCc2ncnn2C1)N(Cc1cccs1)C1CC1 (stereo not drawn) : provide INHIBITION
[out] 27.7

[in] Give the reported INHIBITION for this compound. C1=C(CNC2CCc3ncnn3C2)COc2ccccc21 (stereo not drawn)
[out] 61.6

[in] Find the measured INHIBITION of CC(C)COc1cncc(NCc2nnc3ccccn23)n1 and report it.
[out] 64.3

[in] Indicate the recorded INHIBITION value for this compound: Cn1ccnc1CN1CCc2ncnc(N3CCCC(C#N)C3)c2CC1 (stereo not drawn)
[out] 11.3

[in] Indicate its recorded INHIBITION; the compound in question is COc1ccc(OC)c(-n2c(COC(C)C)n[nH]c2=O)c1
[out] 45.4

[in] Dear colleague, please send me the reported INHIBITION for COc1ccc2c(c1)OCC(CNC1CCc3ncnn3C1)=C2 (stereo not drawn) when you can.
[out] 35.1

[in] Entry CC(C)N(C)Cc1ncn2c1CN(S(=O)(=O)c1cccs1)CCC2 needs its INHIBITION filled in; supply it.
[out] 38.5
